# experimental system: UniProtKB Q15349
# Sequence (Q15349 whole entry): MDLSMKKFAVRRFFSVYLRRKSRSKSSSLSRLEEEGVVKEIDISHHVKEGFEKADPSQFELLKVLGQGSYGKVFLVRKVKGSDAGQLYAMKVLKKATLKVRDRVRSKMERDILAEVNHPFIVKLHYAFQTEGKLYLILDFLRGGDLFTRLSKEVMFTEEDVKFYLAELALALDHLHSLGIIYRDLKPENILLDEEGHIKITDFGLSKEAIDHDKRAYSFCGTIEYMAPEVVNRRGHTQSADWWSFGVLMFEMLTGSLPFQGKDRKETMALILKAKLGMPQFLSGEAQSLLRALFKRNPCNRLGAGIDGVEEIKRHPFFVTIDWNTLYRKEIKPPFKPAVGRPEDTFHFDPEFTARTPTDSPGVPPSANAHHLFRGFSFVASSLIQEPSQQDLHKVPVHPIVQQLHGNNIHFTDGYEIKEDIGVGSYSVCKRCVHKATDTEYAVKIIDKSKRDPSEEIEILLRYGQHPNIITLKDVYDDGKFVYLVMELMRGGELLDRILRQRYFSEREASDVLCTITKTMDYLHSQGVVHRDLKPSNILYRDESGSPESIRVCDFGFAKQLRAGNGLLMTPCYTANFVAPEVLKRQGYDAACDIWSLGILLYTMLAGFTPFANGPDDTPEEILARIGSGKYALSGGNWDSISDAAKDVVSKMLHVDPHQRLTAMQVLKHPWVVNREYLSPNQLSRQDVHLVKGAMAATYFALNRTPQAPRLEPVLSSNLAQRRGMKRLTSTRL

smiles repr: COc1c(Nc2ncc(Cl)c(N[C@H]3[C@@H](C(N)=O)[C@@H]4C=C[C@H]3C4)n2)ccc2c1CC[C@@H](N1CCOCC1)CC2
IC50 (nM): 7

###

# method summary: Oral bioavailability in Beagle dog at 10 mg/kg
# Type: ADME, organism-based, Canis lupus familiaris
# cond: in vivo

smiles repr: COc1c(Nc2ncc(Cl)c(N[C@H]3[C@@H](C(N)=O)[C@@H]4C=C[C@H]3C4)n2)ccc2c1CC[C@@H](N1CCOCC1)CC2
bioavailability: 52%

###

# method summary: Volume of distribution in cynomolgus monkey at 1 mg/kg, iv
# Type: ADME, organism-based, Macaca fascicularis
# Parameters: dose 1 mg/kg, route intravenous
# cond: in vivo
metric name: Vd (L/kg)

smiles repr: COc1c(Nc2ncc(Cl)c(N[C@H]3[C@@H](C(N)=O)[C@@H]4C=C[C@H]3C4)n2)ccc2c1CC[C@@H](N1CCOCC1)CC2
measured: 2.9
